- tested_system: HDAC9 (Homo sapiens, UniProt Q9UKV0)
- Construct: purchased Reaction Biology
- Sequence (Q9UKV0 whole entry): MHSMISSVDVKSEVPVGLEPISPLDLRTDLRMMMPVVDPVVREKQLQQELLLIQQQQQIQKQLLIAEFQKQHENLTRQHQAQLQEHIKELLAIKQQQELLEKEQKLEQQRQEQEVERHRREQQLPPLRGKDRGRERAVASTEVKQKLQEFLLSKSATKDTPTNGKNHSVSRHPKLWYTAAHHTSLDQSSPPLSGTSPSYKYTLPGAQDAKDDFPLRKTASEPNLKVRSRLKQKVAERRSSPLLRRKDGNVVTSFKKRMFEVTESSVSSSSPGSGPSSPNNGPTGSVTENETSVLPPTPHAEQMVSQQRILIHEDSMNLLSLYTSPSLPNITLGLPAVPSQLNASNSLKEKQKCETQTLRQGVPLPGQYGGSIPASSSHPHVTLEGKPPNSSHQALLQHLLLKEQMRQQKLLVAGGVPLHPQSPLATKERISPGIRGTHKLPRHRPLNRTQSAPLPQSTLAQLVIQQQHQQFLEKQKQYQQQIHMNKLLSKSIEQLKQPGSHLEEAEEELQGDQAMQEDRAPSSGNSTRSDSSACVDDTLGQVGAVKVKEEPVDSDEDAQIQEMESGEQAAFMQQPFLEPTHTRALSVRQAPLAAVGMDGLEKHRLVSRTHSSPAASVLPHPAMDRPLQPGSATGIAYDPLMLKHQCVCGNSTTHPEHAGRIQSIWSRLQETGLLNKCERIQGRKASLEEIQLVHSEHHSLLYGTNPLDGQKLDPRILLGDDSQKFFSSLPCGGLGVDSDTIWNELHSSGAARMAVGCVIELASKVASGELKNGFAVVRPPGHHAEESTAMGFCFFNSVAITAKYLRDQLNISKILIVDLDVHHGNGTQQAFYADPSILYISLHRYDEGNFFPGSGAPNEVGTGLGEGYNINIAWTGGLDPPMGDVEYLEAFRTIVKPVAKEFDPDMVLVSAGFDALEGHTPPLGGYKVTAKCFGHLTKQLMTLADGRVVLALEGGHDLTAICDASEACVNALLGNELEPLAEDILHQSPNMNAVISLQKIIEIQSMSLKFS
- assay_text: HDAC enzymatic assay (Reaction Biology), Class 2A substrate
- Assay type: biochemical
- experimental_setup: 10-dose response curve; read-out: Compound IC50 (M), HDAC9
recorded_metric: IC50

# compound Cc1ncsc1-c1ccc([C@H](C)NC(=O)[C@@H]2C[C@@H](O)CN2C(=O)[C@@H](NC(=O)CCOCCOCCN(CCc2c[nH]c3ccccc23)Cc2ccc(/C=C/C(=O)NO)cc2)C(C)(C)C)cc1 ; its IC50 = > 2e-05 M
